Molecular target: chemokine receptor CXCR7 (UniProt P25106 1-362, limits assumed)
Sequence (P25106 whole entry): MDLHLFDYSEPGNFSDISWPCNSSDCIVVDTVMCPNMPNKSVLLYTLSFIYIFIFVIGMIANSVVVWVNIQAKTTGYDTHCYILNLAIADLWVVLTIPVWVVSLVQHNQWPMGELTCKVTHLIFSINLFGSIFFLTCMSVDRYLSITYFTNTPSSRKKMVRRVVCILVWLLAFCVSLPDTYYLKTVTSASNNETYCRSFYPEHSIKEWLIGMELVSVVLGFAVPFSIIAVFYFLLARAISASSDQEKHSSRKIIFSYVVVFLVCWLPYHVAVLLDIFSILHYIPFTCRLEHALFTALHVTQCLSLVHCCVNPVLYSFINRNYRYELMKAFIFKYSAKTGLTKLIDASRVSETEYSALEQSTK
Test: cell-based or functional assay
Numbered stars: 1 amine (or outer) side, 2 acyl side, 3 side chain; on linkers, the order of the positions; unused ones are H or OH. Square brackets hold non-standard residues; d marks the D form. (4S)Hyp(Bn) = O=C([C@@H]1C[C@H](OCc2ccccc2)CN1[*:1])[*:2]; dPro(cis-4-NH2) = N[C@H]1CN[C@@H](C(=O)O)C1; Pro(3S-OH) = O=C(O)[C@H]1NCC[C@@H]1O; Tic = O=C(O)[C@@H]1Cc2ccccc2CN1; dHyp = O=C(O)[C@H]1C[C@H](O)CN1; Orn(A41) = not defined here; Dab = NCC[C@H](N)C(=O)O

[
  {
    "BINDER": "cyclo(I[dR][Dab]W[dP]T) (SMILES CC[C@H](C)[C@@H]1NC(=O)[C@H]([C@@H](C)O)NC(=O)[C@H]2CCCN2C(=O)[C@H](Cc2c[nH]c3ccccc23)NC(=O)[C@H](CCN)NC(=O)[C@@H](CCCNC(=N)N)NC1=O) [cyclo(-Ile-^DArg-Dab-Trp-^DPro-Thr-)]",
    "QUANTITY UNIT": "nM",
    "β-Arrestin EC50": 87
  },
  {
    "BINDER": "cyclo(Y[dF]WR[dPro(cis-4-NH2)][Tic]) (SMILES N=C(N)NCCC[C@@H]1NC(=O)[C@H](Cc2c[nH]c3ccccc23)NC(=O)[C@@H](Cc2ccccc2)NC(=O)[C@H](Cc2ccc(O)cc2)NC(=O)[C@@H]2Cc3ccccc3CN2C(=O)[C@H]2C[C@@H](N)CN2C1=O) [cyclo(-Tyr-^DPhe-Trp-Arg-^DPro((4R)NH2)-Tic-)]",
    "QUANTITY UNIT": "nM",
    "β-Arrestin EC50": 20.9
  },
  {
    "BINDER": "cyclo(W[dF]WR[dHyp][(4S)Hyp(Bn)]) (SMILES N=C(N)NCCC[C@@H]1NC(=O)[C@H](Cc2c[nH]c3ccccc23)NC(=O)[C@@H](Cc2ccccc2)NC(=O)[C@H](Cc2c[nH]c3ccccc23)NC(=O)[C@@H]2C[C@H](OCc3ccccc3)CN2C(=O)[C@H]2C[C@H](O)CN2C1=O) [cyclo(-Trp-^DPhe-Trp-Arg-^DPro((4S)OH)-(4S)-Hyp(Bn)-)]",
    "QUANTITY UNIT": "nM",
    "β-Arrestin EC50": 7.6
  },
  {
    "BINDER": "cyclo(I[dR]RW[dP][Pro(3S-OH)]) (SMILES CC[C@H](C)[C@@H]1NC(=O)[C@@H]2[C@@H](O)CCN2C(=O)[C@H]2CCCN2C(=O)[C@H](Cc2c[nH]c3ccccc23)NC(=O)[C@H](CCCNC(=N)N)NC(=O)[C@@H](CCCNC(=N)N)NC1=O) [cyclo(-Ile-^DArg-Arg-Trp-^DPro-Pro((3S)OH)-)]",
    "QUANTITY UNIT": "nM",
    "β-Arrestin EC50": 123
  },
  {
    "BINDER": "cyclo(I[dR][Orn(A41)]W[dP]T) (reading uncertain; also: printed as cyclo(-Ile-^DArg-Orn(A41)-Trp-^DPro-Thr-)) [cyclo(-Ile-^DArg-Orn(A41)-Trp-^DPro-Thr-)]",
    "QUANTITY UNIT": "nM",
    "β-Arrestin EC50": 518
  },
  {
    "BINDER": "cyclo(R[dF]WR[dP][(4S)Hyp(Bn)]) (SMILES N=C(N)NCCC[C@@H]1NC(=O)[C@@H]2C[C@H](OCc3ccccc3)CN2C(=O)[C@H]2CCCN2C(=O)[C@H](CCCNC(=N)N)NC(=O)[C@H](Cc2c[nH]c3ccccc23)NC(=O)[C@@H](Cc2ccccc2)NC1=O) [cyclo(-Arg-^DPhe-Trp-Arg-^DPro-(4S)-Hyp(Bn)-)]",
    "QUANTITY UNIT": "nM",
    "β-Arrestin EC50": 76.9
  },
  {
    "BINDER": "cyclo(W[dF]WR[dP][Pro((4S)NH2)]) [cyclo(-Trp-^DPhe-Trp-Arg-^DPro-Pro((4S)NH2)-)]",
    "QUANTITY UNIT": "nM",
    "β-Arrestin EC50": 36.9
  }
]
